Test system: Hs-578T
ASSAY_NAME: NCI tumour cell line growth inhibition, 48 h
Active and inactive are the calls of the source. Cut-off read from the data, not from the text of the source: active = GI50 up to about 1.1 µM and inactive = higher. Starred links: 1 amine or outer side, 2 acyl side, 3 side chain; linkers in the order of their positions; H or OH if unused. Positions of bridges follow the written chain, without caps; N, C: chain ends. Where a SMILES comes first, the peptide text is derived from it. Non-standard residues stand in square brackets, D forms with d. Residues, ends and D or L forms follow the SMILES beside them. [ ]: non-standard residue; d: D form. *: point of attachment. X40 = CC[C@H](C)[C@@H](N[*:1])[C@@H](O)CC(=O)[*:2]; NMeY = CN[C@@H](Cc1ccc(O)cc1)C(=O)O; dNMeL = CN[C@H](CC(C)C)C(=O)O; Hiv = CC(C)[C@H](O)C(=O)O; Pyruvoyl = CC(=O)C(=O)*
Returns: one label drawn from true (1) for active, false (0) for inactive

Worked examples follow.
{"COMPOUND": "O=C(O)Cc1ccc(N2N=C(c3ccccc3)CC2=O)cc1", "GROUP": "false (0)"}
{"COMPOUND": "O=C1c2cccc(O)c2C(=O)c2c(OC3OC(CO)C(O)C(O)C3O)cccc21 (stereo not given)", "GROUP": "false (0)"}
{"COMPOUND": "CC(C)[C@@H]1OC(=O)[C@@H](C)NC(=O)[C@@H]2CCCN2C1=O (cyclo([Hiv]-Pro-[dA]))", "GROUP": "false (0)"}
{"COMPOUND": "COc1cc(/C=C2\\C(=O)N(c3ccccc3)C(c3ccccc3)S2(=O)=O)cc(OC)c1OC (stereo not given)", "GROUP": "false (0)"}

Could you kindly confirm the outcome this assay logged for CC[C@H](C)[C@H]1NC(=O)[C@@H](NC(=O)[C@@H](CC(C)C)N(C)C(=O)[C@@H]2CCCN2C(=O)C(C)=O)[C@@H](C)OC(=O)[C@H](Cc2ccc(OC)cc2)N(C)C(=O)[C@@H]2CCCN2C(=O)[C@H](CC(C)C)NC(=O)[C@H](C(C)C)OC(=O)C[C@@H]1O (Pyruvoyl-P[dNMeL]T[X40][Hiv]LP[NMeY](Me); ester 3-C) ?
true (1)

Could you kindly confirm the outcome this assay logged for COc1ccc2c(c1)Cc1cc(/N=[N+](\[O-])c3ccc4c(c3)Cc3cc(OC)ccc3-4)ccc1-2 ?
false (0)
